Assignment: determine reported AmyQ secretion efficiency for the given sequences.
System: Bacillus subtilis DB104 (SP-AmyQ fusion secretion)
Assay: AmyQ secretion efficiency, weighted average sort bin (1 = best secretion, 10 = worst) (bin number (weighted average, 1-10)); higher = lower secretion efficiency
Answer as a number with no unit attached.

Prompt: Look at this sequence and give its reported AmyQ secretion efficiency. MKLWMRKTLVVLFTIVTFGLVSPPAALMYDKP
Completion: 3.73

Prompt: Now consider MMKKLFHSTLIVLLFFSFFGVIPIHAKKQ and answer again.
Completion: 1.92

Prompt: Next up: MKKVMLATALFLGLTPAGANIADL
Completion: 6.67

Prompt: Next record, please: MGLGKKLSVAVAASFMSLSISLPGTQAAEG
Completion: 1.77

Prompt: Entry MRSYIKVLTMCFLGLILFVPTVLADNS please
Completion: 2.19

Prompt: Note, next up: MLKKKWMVGLLAGCLAAGGFSYNFFATEN
Completion: 6.27

Prompt: Please answer likewise for MKLAKRVSALTPSTTLAITRKAKEL
Completion: 7.25

Prompt: Okay, and MKKLLAAGIIGLLTVSIASPYFAAEK ?
Completion: 6.19

Prompt: Now consider MKKKQVMLALTAAAGLGLTALHSAPAAKVAPL .
Completion: 6.92

Prompt: Param item: MKLAKRVSALTPSTTLAITAKADEE
Completion: 6.16

Prompt: Note, next up: MKKWIYVVLVLSIAGIGGFSVHIASS
Completion: 6.47

Prompt: What would you report for MFNRLFRVCFLAALIMAFTLPNSDYAQKP ?
Completion: 6.44

Prompt: Note, next up: MGLGKKLSVAVAASFPGVQAAEG
Completion: 7.32

Prompt: Same for MKKRKVLMAFIICLSLILSVLAAPPSGAKAESV
Completion: 1.28

Prompt: Moving on to MTGTIITATTAVVLGSTLFAGAASAQSI
Completion: 2.31

Prompt: Lookup MSFFTKNRLISSVLSTVVISSLLFPGAAGASSK
Completion: 1.61

Prompt: And MKSKWMSGLLLVAVGFSFTQVMVHPGET ?
Completion: 7.16

Prompt: // repeat for MTVPITMLLSTAAGLLLSLTATSVSAHYV and report
Completion: 6.06

Prompt: Continue with MKKRLIGFLVLVPALIEDGITLIEANKK
Completion: 5.91

Prompt: Further, for MRKKLKWLSFLLGFIILLFLFKYQFSSNDS ?
Completion: 5.44

Prompt: Please give the result for MKSKGSIMACKKKKSFTITTFINTETISAFSN too.
Completion: 7.29

Prompt: What do you get for MKLWMRKTLRRLFTIVTFGLVSPPAALMADKP ?
Completion: 7.18

Prompt: // same read-out, input: MRMLWRSLALCGLALTLAKRRCAQAAEP
Completion: 6.64

Prompt: Next: MMIKQCYGCKSLLVFGTTAAHAEET
Completion: 7.62

Prompt: Another sequence to look at: MMIKQNMSSCVICLSLLVFGTTAAHAEET
Completion: 2.9

Prompt: Can you handle MHRRRKAAGAVCLAVVLIAGCRFNEDQHQAEGENT next?
Completion: 4.73

Prompt: Entry MLCVMMLLFSAIASFPVSAQEKDQ please
Completion: 5.69

Prompt: Same question for MKKKRRKCSICCAAVLLAGGAAQAEAV please.
Completion: 6.1

Prompt: Queued: MMQIMIFLTSFMLLAMTGQTALAKDV
Completion: 4.32

Entry source: the supplement of paper PMC9942255
